Form field: Kd (one value per entry).
Biological target: BRD2 BD1 L/V (Homo sapiens, UniProt P25440, L110V)
Sequence (P25440 71-176 L110V limits assumed): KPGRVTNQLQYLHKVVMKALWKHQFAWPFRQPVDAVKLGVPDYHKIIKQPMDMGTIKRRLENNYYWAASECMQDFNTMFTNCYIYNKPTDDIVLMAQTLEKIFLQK
Test: ITC
Format: binding
OBSERVATION_TYPE: Kd (nM)

[[record]]
molecule = "CC[C@@H](C(=O)OC)[C@@H]1N=C(c2ccc(Cl)cc2)c2ccc(OC)cc2-n2c(C)nnc21 (racemic)"
study_system = "BRD2 BD1 L/V (Homo sapiens, UniProt P25440, L110V)"
observation_type = "Kd"
reported = 340

[[record]]
molecule = "COC(=O)[C@H](C)[C@@H]1N=C(c2ccc(Cl)cc2)c2ccc(OC)cc2-n2c(C)nnc21 [(2R,3S)-7]"
study_system = "BRD2 BD1 L/V (Homo sapiens, UniProt P25440, L110V)"
observation_type = "Kd"
reported = 210

[[record]]
molecule = "C=CC[C@@H](C(=O)OC)[C@@H]1N=C(c2ccc(Cl)cc2)c2cc(OC)ccc2-n2c(C)nnc21 (racemic)"
study_system = "BRD2 BD1 L/V (Homo sapiens, UniProt P25440, L110V)"
observation_type = "Kd"
reported = 470

[[record]]
molecule = "CC[C@@H](C(=O)OC)[C@@H]1N=C(c2ccc(Cl)cc2)c2cc(OC)ccc2-n2c(C)nnc21 (relative stereo)"
study_system = "BRD2 BD1 L/V (Homo sapiens, UniProt P25440, L110V)"
observation_type = "Kd"
reported = 240

[[record]]
molecule = "COC(=O)[C@H](C)[C@@H]1N=C(c2ccc(Cl)cc2)c2ccc(OC)cc2-n2c(C)nnc21 (racemic) [Compound 7]"
study_system = "BRD2 BD1 L/V (Homo sapiens, UniProt P25440, L110V)"
observation_type = "Kd"
reported = 310

[[record]]
molecule = "CCNC(=O)[C@H](C)[C@@H]1N=C(c2ccc(Cl)cc2)c2ccc(OC)cc2-n2c(C)nnc21 (relative stereo)"
study_system = "BRD2 BD1 L/V (Homo sapiens, UniProt P25440, L110V)"
observation_type = "Kd"
reported = 990


----------
Biological target: BRD2 BD1 L/V (Homo sapiens, UniProt P25440, L110V)
Assay: ITC
Format: binding
Conditions: ITC
Parameter threshold = -10 kcal/mol. Response is true (1) when ΔH BRD2 BD1 L/V meets or exceeds it, else false (0).

[[record]]
compound = "CCNC(=O)[C@H](C)[C@@H]1N=C(c2ccc(Cl)cc2)c2ccc(OC)cc2-n2c(C)nnc21 (relative stereo) [Compound 21]"
study_system = "BRD2 BD1 L/V (Homo sapiens, UniProt P25440, L110V)"
category = "true (1)"

[[record]]
compound = "CC[C@@H](C(=O)OC)[C@@H]1N=C(c2ccc(Cl)cc2)c2cc(OC)ccc2-n2c(C)nnc21 (relative stereo) [Compound 4]"
study_system = "BRD2 BD1 L/V (Homo sapiens, UniProt P25440, L110V)"
category = "false (0)"

[[record]]
compound = "C=CC[C@@H](C(=O)OC)[C@@H]1N=C(c2ccc(Cl)cc2)c2cc(OC)ccc2-n2c(C)nnc21 (racemic) [Compound 5]"
study_system = "BRD2 BD1 L/V (Homo sapiens, UniProt P25440, L110V)"
category = "false (0)"

[[record]]
compound = "CCNC(=O)[C@H](C)[C@@H]1N=C(c2ccc(Cl)cc2)c2cc(OC)ccc2-n2c(C)nnc21 (relative stereo) [Compound 16]"
study_system = "BRD2 BD1 L/V (Homo sapiens, UniProt P25440, L110V)"
category = "false (0)"


----------
Biological target: BRD2 BD1 WT (Homo sapiens, UniProt P25440)
Sequence (P25440 71-176): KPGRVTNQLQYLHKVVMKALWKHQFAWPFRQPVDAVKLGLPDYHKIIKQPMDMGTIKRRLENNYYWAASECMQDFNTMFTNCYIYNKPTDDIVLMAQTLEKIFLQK
Experiment: competitive AlphaLISA
Type: binding
pIC50: −log10 of the molar value.
OBSERVATION_TYPE: pIC50

[[record]]
compound = "CC[C@@H](C(=O)OC)[C@@H]1N=C(c2ccc(Cl)cc2)c2ccc(OC)cc2-n2c(C)nnc21 (racemic) [Compound 8]"
reported = 5.00

[[record]]
compound = "COC(=O)[C@H](C)[C@@H]1N=C(c2ccc(Cl)cc2)c2ccc(OC)cc2-n2c(C)nnc21 (racemic) [Compound 7]"
reported = 5.50

[[record]]
compound = "COC(=O)CC1N=C(c2ccc(Cl)cc2)c2ccc(OC)cc2-n2c(C)nnc21 (centres unmarked) [Compound 2]"
reported = 5.70

[[record]]
compound = "CC[C@@H](C(=O)OC(C)(C)C)[C@@H]1N=C(c2ccc(Cl)cc2)c2ccc(OC)cc2-n2c(C)nnc21 [Compound 25]"
reported = 4.40

[[record]]
compound = "CC[C@@H](C(=O)N(CC)CC)[C@@H]1N=C(c2ccc(Cl)cc2)c2cc(OC)ccc2-n2c(C)nnc21 (relative stereo) [Compound 20]"
reported = 4.50

[[record]]
compound = "COC(=O)[C@H](C)[C@@H]1N=C(c2ccc(Cl)cc2)c2cc(OC)ccc2-n2c(C)nnc21 (relative stereo) [Compound 3]"
reported = 5.70

[[record]]
compound = "CC[C@@H](C(=O)OC(C)(C)C)[C@@H]1N=C(c2ccc(Cl)cc2)c2cc(OC)ccc2-n2c(C)nnc21 [Compound 23]"
reported = 5.30

[[record]]
compound = "C=CC[C@@H](C(=O)OC(C)(C)C)[C@@H]1N=C(c2ccc(Cl)cc2)c2ccc(OC)cc2-n2c(C)nnc21 [Compound 26]"
reported = 5.10


----------
Molecular target: BRD3 BD2 L/V (Homo sapiens, UniProt Q15059, L345V)
Sequence (Q15059 306-416 L345V limits assumed): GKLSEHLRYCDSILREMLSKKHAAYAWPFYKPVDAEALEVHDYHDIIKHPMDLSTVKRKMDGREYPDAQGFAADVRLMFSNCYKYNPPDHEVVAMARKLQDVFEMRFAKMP
Experiment: competitive AlphaLISA
Format: binding
Form field: IC50 (one value per entry).
OBSERVATION_TYPE: IC50 (µM)

[[record]]
compound = "CCN(CC)C(=O)[C@H](C)[C@@H]1N=C(c2ccc(Cl)cc2)c2cc(OC)ccc2-n2c(C)nnc21 (relative stereo)"
unit_symbol = "µM"
reported = 0.501

[[record]]
compound = "COC(=O)CC1N=C(c2ccc(Cl)cc2)c2cc(OC)ccc2-n2c(C)nnc21 (centres unmarked)"
unit_symbol = "µM"
reported = 0.501

[[record]]
compound = "C=CC[C@@H](C(=O)OC)[C@@H]1N=C(c2ccc(Cl)cc2)c2ccc(OC)cc2-n2c(C)nnc21 (relative stereo)"
unit_symbol = "µM"
reported = 1

[[record]]
compound = "CCNC(=O)[C@H](C)[C@@H]1N=C(c2ccc(Cl)cc2)c2ccc(OC)cc2-n2c(C)nnc21 (relative stereo)"
unit_symbol = "µM"
reported = 0.501

[[record]]
compound = "COC(=O)CC1N=C(c2ccc(Cl)cc2)c2ccc(OC)cc2-n2c(C)nnc21 (centres unmarked)"
unit_symbol = "µM"
reported = 1


----------
Target: BRD4 BD2 L/V (Homo sapiens, UniProt O60885, L387V)
Test: competitive AlphaLISA
Type: binding
pIC50: −log10 of the molar value.
OBSERVATION_TYPE: pIC50

[[record]]
compound = "C=CC[C@@H](C(=O)OC(C)(C)C)[C@@H]1N=C(c2ccc(Cl)cc2)c2ccc(OC)cc2-n2c(C)nnc21"
reported = 5.50

[[record]]
compound = "C=CC[C@@H](C(=O)OC(C)(C)C)[C@@H]1N=C(c2ccc(Cl)cc2)c2cc(OC)ccc2-n2c(C)nnc21"
reported = 6.00

[[record]]
compound = "C=CC[C@@H](C(=O)OC)[C@@H]1N=C(c2ccc(Cl)cc2)c2ccc(OC)cc2-n2c(C)nnc21 (relative stereo)"
reported = 5.50

[[record]]
compound = "COC(=O)[C@H](C)[C@@H]1N=C(c2ccc(Cl)cc2)c2ccc(OC)cc2-n2c(C)nnc21 (racemic)"
reported = 6.70

[[record]]
compound = "COC(=O)CC1N=C(c2ccc(Cl)cc2)c2ccc(OC)cc2-n2c(C)nnc21 (centres unmarked)"
reported = 5.60


----------
Molecular target: BRD4 BD1 WT (Homo sapiens, UniProt O60885)
Assay: competitive AlphaLISA
Assay type: binding
Conditions: AlphaLISA pIC50 Value BRD4 BD1 WT
OBSERVATION_TYPE: IC50 (µM)

[[record]]
compound = "CC[C@@H](C(=O)OC(C)(C)C)[C@@H]1N=C(c2ccc(Cl)cc2)c2ccc(OC)cc2-n2c(C)nnc21"
reported = 15.8

[[record]]
compound = "C=CC[C@@H](C(=O)OC(C)(C)C)[C@@H]1N=C(c2ccc(Cl)cc2)c2cc(OC)ccc2-n2c(C)nnc21"
reported = 5.01

[[record]]
compound = "C=CC[C@@H](C(=O)OC(C)(C)C)[C@@H]1N=C(c2ccc(Cl)cc2)c2ccc(OC)cc2-n2c(C)nnc21"
reported = 6.31

[[record]]
compound = "C=CC[C@@H](C(=O)NCC)[C@@H]1N=C(c2ccc(Cl)cc2)c2cc(OC)ccc2-n2c(C)nnc21 (relative stereo)"
reported = 39.8

[[record]]
compound = "C=CC[C@@H](C(=O)OC)[C@@H]1N=C(c2ccc(Cl)cc2)c2cc(OC)ccc2-n2c(C)nnc21 (racemic)"
reported = 7.94

[[record]]
compound = "CC[C@@H](C(=O)N(CC)CC)[C@@H]1N=C(c2ccc(Cl)cc2)c2cc(OC)ccc2-n2c(C)nnc21 (relative stereo)"
reported = 25.1


Source: paper PMC5909127
